Test system: SF-268 CNS
Experiment: NCI tumour cell line growth inhibition, 48 h
reported_property: GI50

The value of GI50 measured for the molecule Cc1cn(-c2cc(C(=O)Nc3cccc(-n4ccc5c(NC(=O)c6ccccc6)nccc54)c3)cc(C(F)(F)F)c2)cn1 turned out to be 0.514 µM

The value of GI50 measured for the molecule CCCCCCCCCCNC(=O)CI turned out to be 1.86 µM

The value of GI50 measured for the molecule O=C(NCc1ccc(Cn2c(=O)sn(-c3ccccc3)c2=O)cc1)OCc1ccc2cccc(O)c2n1 turned out to be 1.55 µM

The value of GI50 measured for the molecule CCCC/C(=C\C1=C(C)C(=O)C(OC)=C(OC)C1=O)C(=O)O turned out to be > 100 µM

The value of GI50 measured for the molecule CCc1ccc2c(c1)C(=O)c1c-2n(CCCN=[N+]=[N-])c(=O)c2cc([N+](=O)[O-])ccc12 turned out to be > 50 µM

The value of GI50 measured for the molecule CC(C)c1[nH]nc2c1N=C(c1ccccc1Cl)c1cc([N+](=O)[O-])ccc1N2 turned out to be 7.92 µM

The value of GI50 measured for the molecule Nc1cc(Br)c(-c2nnc(CCC(=O)c3nc4ccccc4[nH]3)o2)c(Br)c1 turned out to be 5.14 µM

The value of GI50 measured for the molecule ClCCN(CCCl)c1ccc(CNc2ccccc2)cc1 turned out to be 4.25 µM

The value of GI50 measured for the molecule COc1cccc(/C=N/[N-]C(=O)c2ccncc2)c1[O-].COc1cccc(/C=N/[N-]C(=O)c2ccncc2)c1[O-].[O]=[U](=[O])([OH2+])[OH2+] turned out to be 4.83 µM

====

TGI for assorted compounds
Tested on: ACHN renal
Assay: NCI tumour cell line growth inhibition, 48 h

The value of TGI measured for the compound c1coc(-c2c3ccc(=[N+]4CCCCC4)cc-3oc3cc(N4CCCCC4)ccc23)c1 turned out to be 0.12 µM

====

TGI for assorted compounds
Tested on: OVCAR-4 ovarian
Experiment: NCI tumour cell line growth inhibition, 48 h
All answers are understood in µM, so give the number only.

Examples with answers:
compound: COc1cc2c(cc1OC)[C@H]1CN3CCC[C@H]3C=C1c1ccc(OC)c(O)c1-2
reported_property: TGI
quantitative_result: 0.00362

compound: CSC(=Nc1ccccc1)N(c1ccccc1)c1nc(=[N+](C)C)ss1
reported_property: TGI
quantitative_result: 21.5

compound: CC(O)CCCOC(c1ccccc1)(c1ccccc1)c1ccccc1 (stereo not given)
reported_property: TGI
quantitative_result: 28.1

compound: OC(c1cc(-c2ccc(C(F)(F)F)cc2)nc(C(F)(F)F)c1)C1CCCCN1 (stereo not given)
reported_property: TGI
quantitative_result: 5.6

Entry C[C@@H]1S[C@H](c2ccccc2F)N2Cc3ccccc3N=C12 : TGI on OVCAR-4 ovarian = 85.4

====

TGI for assorted molecules
Tested on: SN12C renal
Assay: NCI tumour cell line growth inhibition, 48 h

The value of TGI measured for the molecule CC(C)(C)OC(=O)NCCC(N)=S turned out to be > 100 µM

The value of TGI measured for the molecule O=C(/C=C/c1ccccc1)c1ccccc1 turned out to be > 10 µM

====

System: U251 CNS
Hello, when you answer, please use one of the following outcomes: active, inactive

structure_smiles_string: COc1cc2c(Nc3cc(Cl)c(OC)c(Cl)c3)c(C#N)cnc2cc1OCCCN1CCN(C)CC1
assigned_label: inactive

Problem: Write down the call the test reported for this compound. Item: O=C1CCCN1c1ccccc1I(=O)=O
Result: inactive

Problem: Write down the call the test reported for this compound. Item: NNCCc1ccc(NC(=O)CCCc2ccc(C(=O)Nc3ccccc3N)cc2)cc1
Result: inactive

Problem: Write down the call the test reported for this compound. Item: CN(C)C(=S)SSC(=S)N(C)C
Result: inactive

Problem: Write down the call the test reported for this compound. Item: Cc1cc(N/N=C/c2ccccn2)nc2ccccc12
Result: active

Problem: Write down the call the test reported for this compound. Item: COc1ccc(-c2cnnn2-c2nonc2-n2cccc2)cc1
Result: active

Problem: Write down the call the test reported for this compound. Item: CCCC/C(=C\C1=C(C)C(=O)C(OC)=C(OC)C1=O)C(=O)O
Result: inactive

====

TGI for assorted compounds
Test system: SF-268 CNS
Experiment: NCI tumour cell line growth inhibition, 48 h

Examples with answers:
compound: Cc1cccc(C2=C/C(=C(\SS/C(C(=O)c3ccc(OCC(=O)O)c(Cl)c3Cl)=C3\C=C(c4cccc(C)c4)SS3)C(=O)c3ccc(OCC(=O)O)c(Cl)c3Cl)SS2)c1
reported_property: TGI
result: 39.6 µM

compound: CCOC(=O)NC(=O)c1cn(C2CCCCC2)c(=O)[nH]c1=O
reported_property: TGI
result: > 100 µM

compound: CC1=NN(C(=O)CC(=O)Nc2ccccc2F)C(=O)C1N=Nc1ccccc1[N+](=O)[O-] (stereo not drawn)
reported_property: TGI
result: > 100 µM

compound: O=C(c1ccco1)c1c(C(F)(F)F)n([O-])c2ccc(C(F)(F)F)cc2[n+]1=O
reported_property: TGI
result: 0.674 µM

compound: CCCC/C(=C\C1=C(C)C(=O)C(OC)=C(OC)C1=O)C(=O)O
reported_property: TGI
result: > 100 µM

compound: CC(C)CCC[C@@H](C)C1CCC2[C@@H]3CC=C4C[C@@H](C(=O)NCCN(C)C)CC[C@]4(C)C3CC[C@@]21C (stereo partly drawn)
reported_property: TGI
result: > 100 µM

compound: COC(=O)c1c2c(cc3c1CCC3)CCC2
reported_property: TGI
result: > 100 µM

compound: C#CCOc1cccc(Nc2ncnc3c(NC(=O)C=C)cccc23)c1
reported_property: TGI
result: > 100 µM

compound: COc1cc(-c2cc(=O)c3cc4c(=O)cc(-c5cc(OC)c(OC)c(OC)c5)oc4cc3o2)cc(OC)c1OC
reported_property: TGI
result: > 94.7 µM

compound: Oc1[nH]c2ccc(Br)cc2c1N=NC(=S)Nc1ccc(F)cc1
reported_property: TGI
result: 35.7 µM

The value of TGI measured for the compound Nc1cc2c(cc1Br)[nH]c(=O)c1ccccc12 turned out to be 44.9 µM

The value of TGI measured for the compound Cn1ccnc1C(O)(c1nccn1C)c1nccn1C turned out to be > 100 µM

The value of TGI measured for the compound Cc1cc(-c2nc3ccccc3s2)ccc1NC(=O)[C@@H](N)CCCCN turned out to be 14.5 µM

The value of TGI measured for the compound COC(=O)/C([Se]c1c(C)cc(C)cc1C)=C(/[Se]c1c(C)cc(C)cc1C)C(=O)OC turned out to be > 100 µM

The value of TGI measured for the compound O=C(Cc1nc2c3c(ccc2[nH]c1=O)C(=O)c1ccccc1C3=O)C(=O)Nc1ccccc1[N+](=O)[O-] turned out to be 31.5 µM

The value of TGI measured for the compound COC(c1ccc(C(C)(C)C)cc1)(c1ccc(C(C)(C)C)cc1)c1ccc(C(C)(C)C)cc1 turned out to be > 100 µM

The value of TGI measured for the compound CCCCNC(=S)N/N=C/c1cccc(C)n1 turned out to be > 100 µM

The value of TGI measured for the compound COC(=O)CCc1cc(OC)c2c(c1)[C@H](C(=O)OC)[C@@H](c1ccc(O)c(OC)c1)O2 turned out to be > 100 µM

====

TGI for assorted compounds
Test system: HOP-92 NSCLC
Assay: NCI tumour cell line growth inhibition, 48 h

Examples with answers:
compound: COc1cc2c(cc1OC)[C@H]1CN3CCC[C@H]3C=C1c1ccc(OC)c(O)c1-2
reported_property: TGI
result: 0.000382 µM

compound: O=C1Nc2ccccc2/C1=C1\CCc2cc(O)ccc21
reported_property: TGI
result: 22.8 µM

compound: CCOC(=O)C(Cl)(Cl)/S(=N\S(=O)(=O)c1ccccc1)NC(=O)c1ccccc1 (stereo not given)
reported_property: TGI
result: > 100 µM

Below: the item to evaluate.
The value of TGI measured for the compound CC(C)(C)[Si](C)(C)OC1[C@@H](CNC(=O)NC(=O)CCl)O[C@@H](n2cnc3c(N)ncnc32)[C@H]1O[Si](C)(C)C(C)(C)C (stereo not given in full) turned out to be 1.86 µM

====

System: IGROV1 ovarian
Test: NCI tumour cell line growth inhibition, 48 h; in the data active means GI50 below about 0.43 µM; inactive means the rest
Hello, when you answer, please use one of the following outcomes: active, inactive

Problem: Write down the call the test reported for this compound. Item: Cc1cc(Nc2nc(-c3cn(-c4ccc(Cl)cc4)nn3)nc3ccccc23)n[nH]1
Result: inactive

Problem: Write down the call the test reported for this compound. Item: Nc1ccc(-c2nc3ccccc3s2)cc1C(F)(F)F
Result: inactive

Problem: Write down the call the test reported for this compound. Item: COc1ccc(-c2nc(-c3cc(OC)cc(OC)c3)[nH]c2-c2ccc(OC)cc2)cc1
Result: inactive

Problem: Write down the call the test reported for this compound. Item: CC(C)(C)[Si](C)(C)OC1[C@@H](CNC(=O)NC(=O)CCl)O[C@@H](n2cnc3c(N)ncnc32)[C@H]1O[Si](C)(C)C(C)(C)C (stereo not given in full)
Result: active
